Test system: Huh-7 cells containing the self-replicating, subgenomic HCV replicon
protocol: HCV replicon assay (luciferase reporter)
Format: cell-based
study conditions: Hepatitis C virus, Huh-7, 72 h
measurement type: EC50

Some entries whose results are on file:
>  <compound>
CCOc1nc(N)nc2c1ncn2[C@@H]1O[C@](F)(COP(=O)(N[C@@H](C)C(=O)OC(CC)CC)Oc2ccccc2)[C@@H](O)[C@@]1(C)F (stereo partly drawn)

>  <EC50>
< 1000 nM

$$$$
>  <compound>
C[C@H](NP(=O)(OC[C@@]1(F)O[C@@H](n2cnc3c(=O)[nH]c(N)nc32)[C@](C)(O)[C@@H]1O)Oc1ccccc1)C(=O)OC1CCCCC1 (stereo partly drawn)

>  <EC50>
< 1000 nM

$$$$

Now, please, on to the next compound.
Can you share its EC50? I mean this compound: CCOC(=O)[C@H](C)NP(=O)(N[C@@H](C)C(=O)OCC)OC[C@@]1(F)O[C@@H](n2ccc(=O)[nH]c2=O)[C@](C)(O)[C@@H]1O
1000 to 10000 nM
